Study the reported IC50 values for Protein O-GlcNAcase (Homo sapiens, UniProt O60502) given below; they originate from different publications.

In the examples that follow, each entry is paired with its recorded IC50.
CCCCCCN1[C@H](CC(=O)NC)[C@@H](O)[C@H](O)[C@@H]1CO    580 nM
Cc1ccc(-c2nc(CN3CCCC3c3ccc4c(c3)OCO4)co2)cc1 (single isomer, unassigned)    1000 to 10000 nM
Cn1cc(-c2ccc(CN3CCCC3c3ccc4cccnc4c3)cc2)cn1 (racemic)    50 to 200 nM
CC(c1ccc2scnc2c1)N1CCC2(CC1)C(=O)N(Cc1ccc(C#N)cc1)C(=O)N2C (racemic)    1000 to 10000 nM
CN=S(C)(=O)c1cnc(N2CCN(C(C)c3ccc4scnc4c3)CC2)nc1 (single isomer, unassigned)    < 50 nM
CS(=O)(=O)c1ccc(CN2CCCC2c2ccc3c(c2)OCCO3)cc1 (single isomer, unassigned)    200 to 1000 nM

*Q* Query IC50 on Protein O-GlcNAcase (Homo sapiens, UniProt O60502) for CC(c1ccc2c(c1)OCC2)N1CCN(c2ccc(S(C)(=N)=O)cn2)CC1 (racemic)
*A* < 50 nM

*Q* Query IC50 on Protein O-GlcNAcase (Homo sapiens, UniProt O60502) for CCCCCCN1[C@H](CC(=O)NC)[C@H](O)[C@H](O)[C@H]1CO
*A* 49 nM
